A collection of molecules and their measured IC50
- subject_of_test: human Werner helicase (WRN-BV08, Uniprot Q14191, amino acids 517-1235 with L1074F point mutation) (Homo sapiens, UniProt Q14191, L1074F)
- Construct: Uniprot Q14191, amino acids 517-1235 with L1074F point mutation; TEV-cleavable 8×His (C, cleaved yes); made in house; host or cells: Sf9 insect cells (baculovirus)
- Sequence (Q14191 with tags, fused parts or gaps L1074F limits assumed): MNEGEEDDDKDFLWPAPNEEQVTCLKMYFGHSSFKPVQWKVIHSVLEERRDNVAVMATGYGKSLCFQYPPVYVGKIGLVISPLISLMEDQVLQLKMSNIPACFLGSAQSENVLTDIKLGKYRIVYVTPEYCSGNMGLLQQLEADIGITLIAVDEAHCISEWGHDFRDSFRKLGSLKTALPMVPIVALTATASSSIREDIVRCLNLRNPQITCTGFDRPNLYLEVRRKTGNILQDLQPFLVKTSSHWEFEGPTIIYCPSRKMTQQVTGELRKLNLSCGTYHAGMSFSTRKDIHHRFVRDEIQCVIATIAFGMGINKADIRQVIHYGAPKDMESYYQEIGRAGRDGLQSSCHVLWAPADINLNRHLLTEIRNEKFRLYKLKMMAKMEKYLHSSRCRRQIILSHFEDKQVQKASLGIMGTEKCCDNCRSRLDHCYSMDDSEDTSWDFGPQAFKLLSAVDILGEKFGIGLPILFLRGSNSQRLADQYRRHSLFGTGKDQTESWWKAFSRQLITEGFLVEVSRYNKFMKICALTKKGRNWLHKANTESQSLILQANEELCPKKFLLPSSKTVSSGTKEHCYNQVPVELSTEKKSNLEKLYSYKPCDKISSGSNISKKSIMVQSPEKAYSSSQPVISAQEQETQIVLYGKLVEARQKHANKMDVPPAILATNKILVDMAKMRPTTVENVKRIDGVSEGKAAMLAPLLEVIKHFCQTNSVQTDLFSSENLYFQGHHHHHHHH
- protocol: WRN (BV08) ADP-Glo Assay
- Assay type: biochemical
- measurement_parameters: 0.15 nM WRN, 5 μM ATP, 0.1 nM DNA duplex, 15 min preincubation, 60 min at 25° C., pH 7.5, 1% DMSO; read-out: ADP-Glo_hWRN_IC50

Consider the reported IC50 for these molecules:
Cc1cccc(-c2ccc(CC(=O)N(Cc3ccncc3)C3C=CS(=O)(=O)C3)cc2)c1 (stereo not drawn): 10 to 50 µM
O=C(Cc1ccc(-n2cccc2)cc1)N(CC1CCOCC1)C1C=CS(=O)(=O)C1 (stereo not drawn): > 50 µM
COc1ccc(C(F)(F)C(=O)N(Cc2ccncc2)C2C=CS(=O)(=O)C2)cc1 (stereo not drawn): > 50 µM
O=C(C1CC(Cc2ccccc2)=NO1)N(Cc1ccncc1)C1C=CS(=O)(=O)C1 (stereo not drawn): > 50 µM
CC(C)(O)c1cc(CN(C(=O)Cn2cc(-c3ccccc3F)cn2)C2C=CS(=O)(=O)C2)ccn1 (stereo not drawn): 0.5 to 5 µM
O=C(CCCc1c[nH]c2ccccc12)N(Cc1ccncc1)C1C=CS(=O)(=O)C1 (stereo not drawn): > 50 µM

Q: Entry under review: NCCc1cccn1-c1ccc(CC(=O)N(Cc2ccccc2)C2C=CS(=O)(=O)C2)cc1 (stereo not drawn) . Reported IC50?
Result: 5 to 10 µM

Q: Which IC50 is listed for CC(C)(N)c1ccc(CN(C(=O)Cn2cc(-c3ccc(F)c(F)c3)cn2)C2C=CS(=O)(=O)C2)cc1 (stereo not drawn) ?
Result: 0.5 to 5 µM

Q: Find the recorded IC50 belonging to O=C(Cc1ccc(N2CCC2)cc1)N(Cc1ccncc1)C1C=CS(=O)(=O)C1 (stereo not drawn) and report it.
Result: > 50 µM
